Tested on: T-47D breast
Assay: NCI tumour cell line growth inhibition, 48 h
Peptide text beside a SMILES is read from it. * marks the point of attachment. X34 = O=C(c1ccc(-c2ccc(Cl)cc2Cl)o1)*
# reported TGI; entries follow
REPORTED_METRIC: TGI

[[record]]
compound = "COc1ccc(C(=O)CCN(C)C)c2ccccc12"
tested_target = "T-47D breast"
recorded_measurement = "49.5 µM"

[[record]]
compound = "O=C(c1ccccc1)C1OC1C(=O)c1ccccc1 (stereo not given)"
tested_target = "T-47D breast"
recorded_measurement = "> 100 µM"

[[record]]
compound = "FC(F)(F)c1cc(NC(=S)N2c3ccccc3-n3cccc3C2c2cccnc2)cc(C(F)(F)F)c1 (stereo not given)"
tested_target = "T-47D breast"
recorded_measurement = "26.2 µM"

[[record]]
compound = "Cc1nc(-n2nc(-c3ccccc3)cc2-c2ccccc2)sc1C(=O)/C=C/c1ccc([N+](=O)[O-])cc1"
tested_target = "T-47D breast"
recorded_measurement = "> 100 µM"

[[record]]
compound = "CC(=O)OCCCCN1C(=O)CSc2ccccc21"
tested_target = "T-47D breast"
recorded_measurement = "> 100 µM"

[[record]]
compound = "COc1ccc2nc3c(cc2c1)C(=O)CC(c1ccccc1)C3 (stereo not given)"
tested_target = "T-47D breast"
recorded_measurement = "> 100 µM"

[[record]]
compound = "CC(=O)OCC1=CC2OC(=O)C3=COC(OC4OC(CO)C(O)C(O)C4O)C1C32 (stereo not given)"
tested_target = "T-47D breast"
recorded_measurement = "> 100 µM"

[[record]]
compound = "O=C(O)/C=C/c1ccc(OS(=O)(=O)O)cc1"
tested_target = "T-47D breast"
recorded_measurement = "> 100 µM"

[[record]]
compound = "CN1c2c(nc(N)[nH]c2=O)NCC1CCNc1ccc(C(=O)NC(CCC(=O)O)C(=O)O)cc1 (stereo not given)"
tested_target = "T-47D breast"
recorded_measurement = "4260 µM"

[[record]]
compound = "C=CCOc1ccc(N)c([N+](=O)[O-])c1"
tested_target = "T-47D breast"
recorded_measurement = "> 100 µM"

[[record]]
compound = "O=C1/C(=C/C=C/c2ccccc2)N=C(c2ccccc2)N1c1ccc(S(=O)(=O)Nc2nccs2)cc1"
tested_target = "T-47D breast"
recorded_measurement = "> 100 µM"

[[record]]
compound = "C/C(CC(C)(C)N1CC1)=N\\NC(=O)Nc1cccc2ccccc12"
tested_target = "T-47D breast"
recorded_measurement = "17.3 µM"

[[record]]
compound = "O=C1NC(=NCc2ccc(F)cc2)N/C1=C\\c1ccccc1Cl"
tested_target = "T-47D breast"
recorded_measurement = "29.4 µM"

[[record]]
compound = "COC(=O)C(CC(C)C)NC(=O)C(Cc1ccccc1)NC(=O)C1CCCN1C(=O)C(CO)NC(=O)c1ccc(-c2ccc(Cl)cc2Cl)o1 (stereo not given) (X34-SPFL-OMe; configuration not given here)"
tested_target = "T-47D breast"
recorded_measurement = "> 100 µM"

[[record]]
compound = "[C-]#[N+]C(=C\\c1ccc(O)cc1)/C(=C/c1ccc(O)cc1)[N+]#[C-]"
tested_target = "T-47D breast"
recorded_measurement = "12.1 µM"

[[record]]
compound = "COc1ccccc1/C=N/Nc1nnc2c3ccccc3c3ncccc3c2n1"
tested_target = "T-47D breast"
recorded_measurement = "> 100 µM"

[[record]]
compound = "C=CCc1cccc2cc(C(=O)Nc3ccc(C)cc3)c(=N)oc12"
tested_target = "T-47D breast"
recorded_measurement = "> 100 µM"

[[record]]
compound = "CC[C@H]1CCC/C=C/[C@@H]2C[C@H](O)C[C@H]2[C@H](O)/C=C/C(=O)O1"
tested_target = "T-47D breast"
recorded_measurement = "0.263 µM"

[[record]]
compound = "O=C(c1ccccc1)N(CCCCNC(=O)C(F)(F)F)CCCNC(=O)C(F)(F)F"
tested_target = "T-47D breast"
recorded_measurement = "> 100 µM"

[[record]]
compound = "O=S1(=O)c2ccccc2N2C(c3ccccc3)=NOC2(c2ccccc2)CC1c1ccc(Br)cc1 (stereo not given)"
tested_target = "T-47D breast"
recorded_measurement = "> 100 µM"


Each recorded value in this set is attributed to PubChem BioAssay (NCI).
